B1: C1orf55 (parent)
chain: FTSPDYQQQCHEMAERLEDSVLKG

variants of: B1; test: protein stability index of a GFP-peptide fusion (GPS, HEK-293T) (PSI 1-6); higher = more stable; settings: c terminus: a fixed tail appended;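 also: lentivirally expressed fusions sorted by FACS into six bins by GFP to DsRed ratio, PSI derived from sequencing read proportions per bin multiplied by bin number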
result.type: protein stability index

Below, each entry is followed by its recorded protein stability index result.
- input.sequence: "FTSPDYQQQCHEMAERLRDSVLKG [E18R]"
  protein stability index: 2.36
- input.sequence: "FTSPDYGQQCHEMAERLEDSVLKG [Q7G]"
  protein stability index: 2.05

Data request: So what's the measured protein stability index for this one? FTSPDYQQQCHEMAERLETSVLKG [D19T]
Data returned: 1.76

Data request: So what's the measured protein stability index for this one? FTSIDYQQQCHEMAERLEDSVLKG [P4I]
Data returned: 2.37

Data request: So what's the measured protein stability index for this one? FTSPDYQQQCHEMAERLEDSVLKN [G24N]
Data returned: 2.15

Data request: So what's the measured protein stability index for this one? FTSPDYQQQCHEMAERLDDSVLKG [E18D]
Data returned: 1.9

Data request: So what's the measured protein stability index for this one? FTSPDYQQQCHEMAERLHDSVLKG [E18H]
Data returned: 1.74

Data request: So what's the measured protein stability index for this one? FTSPDYQQQCHEMAERPEDSVLKG [L17P]
Data returned: 2.66

Data request: So what's the measured protein stability index for this one? FTSPDYQQQHHEMAERLEDSVLKG [C10H]
Data returned: 2.74

Data request: So what's the measured protein stability index for this one? FTFPDYQQQCHEMAERLEDSVLKG [S3F]
Data returned: 3.06

Data request: So what's the measured protein stability index for this one? FISPDYQQQCHEMAERLEDSVLKG [T2I]
Data returned: 2.14

Data request: So what's the measured protein stability index for this one? FTSPDYQQQCHEQAERLEDSVLKG [M13Q]
Data returned: 2.24

Data request: So what's the measured protein stability index for this one? FTSPDYQQQCHEMAERDEDSVLKG [L17D]
Data returned: 3.18

Data request: So what's the measured protein stability index for this one? MTSPDYQQQCHEMAERLEDSVLKG [F1M]
Data returned: 4.55

Data request: So what's the measured protein stability index for this one? FTSPDYQQQCHEMAERLEDCVLKG [S20C]
Data returned: 2.4

Data request: So what's the measured protein stability index for this one? FTSVDYQQQCHEMAERLEDSVLKG [P4V]
Data returned: 2.09

Data request: So what's the measured protein stability index for this one? FTSPDYQQQCHEMAERYEDSVLKG [L17Y]
Data returned: 2.22
